- System tested: EphrinB2-EphB2 (Homo sapiens, UniProt P29323)
- Construct: soluble human EphB1-His, EphB2-His, and EphB4-His ectodomains; commercially available human EphrinB1-Fc (EB1), EphrinB2-Fc (EB2), and EphrinB3-Fc (EB3) ectodomain proteins; purchased
- Sequence (P29323 19-543 limits assumed): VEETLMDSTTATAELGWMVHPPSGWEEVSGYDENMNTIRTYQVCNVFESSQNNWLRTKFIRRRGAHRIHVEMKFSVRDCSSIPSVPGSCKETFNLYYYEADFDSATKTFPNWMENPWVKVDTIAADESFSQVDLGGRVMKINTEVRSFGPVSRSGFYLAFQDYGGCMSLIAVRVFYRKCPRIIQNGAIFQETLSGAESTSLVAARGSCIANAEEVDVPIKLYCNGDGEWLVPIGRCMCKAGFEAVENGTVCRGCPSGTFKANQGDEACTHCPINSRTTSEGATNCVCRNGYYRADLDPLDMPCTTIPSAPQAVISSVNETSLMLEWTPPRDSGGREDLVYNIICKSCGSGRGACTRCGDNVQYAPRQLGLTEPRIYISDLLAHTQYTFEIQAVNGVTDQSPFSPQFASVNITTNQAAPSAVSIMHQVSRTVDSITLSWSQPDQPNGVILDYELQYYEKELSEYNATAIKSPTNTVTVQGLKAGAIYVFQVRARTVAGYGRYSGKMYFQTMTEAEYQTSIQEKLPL
- Experiment description: Octet 80 sec association/500 sec dissociation, immobilized human EphrinB2-Fc binding to soluble human EphB2-His
- Condition summary: at 3.2 μM and 580 seconds; immobilized human EphrinB2; 25 nM soluble human EphB2
Marks after values point to notes of the source that are not given here.
compounds and their reported EphB2 Inhibition Percent, Inhibition of Association-Dissociation
Measured quantity: EphB2 Inhibition Percent, Inhibition of Association-Dissociation

Compound | Result value
Cc1ccc2c(CN3CCN(c4ccc(Br)cc4)CC3)ccc(O)c2n1 [Compound 61] | 0*%
Oc1cccc2cccnc12 [Compound 102, 8-Hydroxyquinoline, reference compound] | 0*%
Oc1ccc(CN2CCN(c3ccc(F)cc3F)CC2)c2cccnc12 [Compound 62] | 0*%
COc1ccc2[nH]cc(C(=O)N3CCOCC3)c2c1 [Compound 63] | 0*%

###

- System tested: EphrinB2-EphB4 (Homo sapiens, UniProt P54760)
- Construct: soluble human EphB1-His, EphB2-His, and EphB4-His ectodomains; commercially available human EphrinB1-Fc (EB1), EphrinB2-Fc (EB2), and EphrinB3-Fc (EB3) ectodomain proteins; purchased
- Sequence (P54760 16-539 limits assumed): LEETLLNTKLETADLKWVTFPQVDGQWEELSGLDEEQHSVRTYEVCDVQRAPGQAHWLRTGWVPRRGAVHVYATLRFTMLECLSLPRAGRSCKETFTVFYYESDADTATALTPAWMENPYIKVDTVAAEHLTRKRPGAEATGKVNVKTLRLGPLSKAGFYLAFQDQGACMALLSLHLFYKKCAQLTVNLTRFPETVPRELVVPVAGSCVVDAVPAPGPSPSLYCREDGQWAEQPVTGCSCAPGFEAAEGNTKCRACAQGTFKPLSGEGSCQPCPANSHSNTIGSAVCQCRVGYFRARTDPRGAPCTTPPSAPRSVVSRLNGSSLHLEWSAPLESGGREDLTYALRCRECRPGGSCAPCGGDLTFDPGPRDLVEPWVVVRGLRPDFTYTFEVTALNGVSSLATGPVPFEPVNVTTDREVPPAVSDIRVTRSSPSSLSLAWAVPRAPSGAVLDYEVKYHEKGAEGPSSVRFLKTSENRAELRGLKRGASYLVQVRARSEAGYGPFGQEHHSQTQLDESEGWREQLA
- Experiment description: Octet 80 sec association/500 sec dissociation, immobilized human EphrinB2-Fc binding to soluble human EphB4-His
- Condition summary: EphB4; 25 nM EphB4; 3.2 μM compound; A20-I as max control; 0* = less than 0, no inhibition; read-out: % Inhibition: Association ONLY (80 sec)

Compound | Unit string | inhibition at 3.2 µM
Oc1c(Cl)cc(CN2CCOCC2)c2cccnc12 [Compound 3] | % | 16.8
O=S1(=O)CCN(Cc2cc(Br)c(O)c3ncccc23)CC1 [Compound 16] | % | 18.1
Oc1c(Br)cc(CN2CCN(Cc3ccc(Br)cc3)CC2)c2cccnc12 [Compound 44] | % | 4.9
O=C(Cc1ccccc1)Nc1ccc(N2CCN(Cc3ccc(O)c4ncccc34)CC2)cc1 [Compound 51] | % | 18.1
Oc1ccc(CN2CCN(c3ccc(Br)cn3)CC2)c2cccnc12 [Compound 33] | % | 20.9
Oc1c(Br)cc(CN2CCOCC2)c2cccnc12 [Compound 5] | % | 0
